# Measurement target: Mitogen-activated protein kinase kinase kinase 2 (Homo sapiens) + Dual specificity mitogen-activated protein kinase kinase 5 (Homo sapiens) (UniProt Q9Y2U5+Q13163)
# Sequence (Q13163 whole entry, looked up): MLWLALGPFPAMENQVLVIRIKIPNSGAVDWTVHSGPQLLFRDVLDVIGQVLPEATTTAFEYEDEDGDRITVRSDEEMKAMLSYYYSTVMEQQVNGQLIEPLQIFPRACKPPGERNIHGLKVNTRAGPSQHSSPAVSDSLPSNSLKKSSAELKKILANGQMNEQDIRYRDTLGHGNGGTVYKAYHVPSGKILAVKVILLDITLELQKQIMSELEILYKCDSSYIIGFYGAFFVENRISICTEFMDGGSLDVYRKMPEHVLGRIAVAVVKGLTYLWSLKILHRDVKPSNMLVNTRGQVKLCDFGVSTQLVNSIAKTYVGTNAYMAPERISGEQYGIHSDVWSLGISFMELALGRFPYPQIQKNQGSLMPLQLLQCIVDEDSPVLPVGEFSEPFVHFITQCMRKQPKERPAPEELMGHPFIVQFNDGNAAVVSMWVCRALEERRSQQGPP
# Sequence (Q9Y2U5 whole entry, looked up): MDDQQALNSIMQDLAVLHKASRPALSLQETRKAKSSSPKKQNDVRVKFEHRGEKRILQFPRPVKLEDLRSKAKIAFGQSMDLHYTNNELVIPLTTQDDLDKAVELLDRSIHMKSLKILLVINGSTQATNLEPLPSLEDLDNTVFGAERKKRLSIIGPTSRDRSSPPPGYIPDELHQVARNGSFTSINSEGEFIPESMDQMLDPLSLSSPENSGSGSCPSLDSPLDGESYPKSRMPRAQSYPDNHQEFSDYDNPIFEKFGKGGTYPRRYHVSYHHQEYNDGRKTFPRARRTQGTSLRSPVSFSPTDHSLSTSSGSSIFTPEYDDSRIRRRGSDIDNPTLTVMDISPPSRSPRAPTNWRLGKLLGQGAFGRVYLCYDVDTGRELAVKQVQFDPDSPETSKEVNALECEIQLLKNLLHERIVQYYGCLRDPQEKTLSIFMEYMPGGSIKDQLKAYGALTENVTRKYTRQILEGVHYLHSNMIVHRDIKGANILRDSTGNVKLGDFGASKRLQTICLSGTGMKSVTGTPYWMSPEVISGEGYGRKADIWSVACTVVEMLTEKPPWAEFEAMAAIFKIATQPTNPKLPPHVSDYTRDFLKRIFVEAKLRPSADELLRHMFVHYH
# Assay: inhibitors of MEK5 binding to MEKK2, dose response, biochemical, bead multiplex flow cytometry, wildtype (AID 1897)
# Measurement parameters: MEK5-MEKK2 PB1 binding, measured here: Ki from binding competition
Readout type: log10 Ki (log10 of the value in µM)
# log10 transformed; quantity=Ki; unit=µM

Look up log10 Ki for this compound: CN1C(=O)/C(=C\c2ccc(-c3ccccc3)o2)SC1=S
0.50

Look up log10 Ki for this compound: CCN(CC)CCOC(=O)c1ccc(N/C=C(/C#N)c2nc(-c3cc4ccccc4oc3=O)cs2)cc1
0.64

Look up log10 Ki for this compound: CCCN1C(=O)/C(=C\C=C2/Sc3ccccc3N2CC)SC1=S
0.43

Look up log10 Ki for this compound: CN(c1ccccc1)c1ccc(/C=c2\s/c(=C(/C#N)C(=O)C(C)(C)C)n(Cc3ccco3)c2=O)cc1
-0.22

Look up log10 Ki for this compound: Nc1ccc(N)c(C(=O)O)c1
0.53

Look up log10 Ki for this compound: Cc1c2cc(O)c(=O)cc-2oc2cc(O)c(O)cc12
0.56

Look up log10 Ki for this compound: CCN1/C(=C/c2ccc3cc(C)ccc3[n+]2CC)Sc2cc(C)c(C)cc21
0.37

Look up log10 Ki for this compound: CCC(/C=C1\Sc2ccc(OC)cc2N1CC)=C\c1sc2ccc(OC)cc2[n+]1CCCS(=O)(=O)[O-]
0.60

Look up log10 Ki for this compound: Cc1cc2cc(CNC(=O)NC3CCCCC3)ccc2[nH]1
0.57

Look up log10 Ki for this compound: Nc1ccc(Nc2ccccc2N)cc1
1.32

Look up log10 Ki for this compound: O=C1Nc2ccc(Br)cc2/C1=N/N=C/C1=C(N2CCOCC2)C(=C\c2ccccc2)/CC1
0.23

Look up log10 Ki for this compound: CCN1/C(=C/c2ccc3cc(C)cc(C)c3[n+]2CC)Sc2cc(C)ccc21
0.23

Look up log10 Ki for this compound: CN1C(=CC=C2C=C(I)C(=O)C(I)=C2)C(C)(C)c2ccccc21
0.91

Look up log10 Ki for this compound: C=CCN1C(=O)/C(=C/c2ccc(-c3ccc(F)cc3)o2)SC1=S
0.26

Look up log10 Ki for this compound: CN(C)c1ccc(/C=C/C=C2/SC(=S)N(c3ccccc3)C2=O)cc1
-0.07
